B1: TPR t1 (parent)
chain: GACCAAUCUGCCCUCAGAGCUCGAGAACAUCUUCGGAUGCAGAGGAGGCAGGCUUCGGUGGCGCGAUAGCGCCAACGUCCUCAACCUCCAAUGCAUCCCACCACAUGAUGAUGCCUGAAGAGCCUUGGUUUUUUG

# Variants of: B1
# assayInfo: polymerase ribozyme fitness, log enrichment relative to wild type (log ratio); higher = more active; in vitro selection for triplet polymerase activity
quantityKind: polymerase ribozyme fitness (log ratio)
Answer as a number with no unit attached.

[Q] Given C15U A16U C76A C115A C123A U130C , state its recorded polymerase ribozyme fitness (log ratio).
[A] -5.56

[Q] Quick one: G69U G120C
[A] 1.2

[Q] Quick one: A83G C97U C115A G135C
[A] -1.7

[Q] Quick one: U87A C88U
[A] -1.46

[Q] Quick one: C11A C28G G44A C70U A121C
[A] -4.42

[Q] Quick one: G51C C53G G61U
[A] -2.56

[Q] Quick one: A2C C12U G42U G71U A84U C94A U129A
[A] -4.83

[Q] Quick one: G47A C73A U126A
[A] -2.35

[Q] Quick one: C49A G63U G117A
[A] -3.12

[Q] Quick one: C22U C53A
[A] -4.52

[Q] Quick one: A26G G71A A84C C89U G93C C114U
[A] -6.05

[Q] Quick one: A18C G45A C49G G61A U133A
[A] -4.6

[Q] Quick one: A29U G48A U92C C101U C114A
[A] -5.72

[Q] Quick one: G36A G51U G120A
[A] -3.42

[Q] Quick one: C13G G128C
[A] -3.48

[Q] Quick one: G63C C124A
[A] 0.234

[Q] Quick one: A2U A43U
[A] -3.48

[Q] Quick one: A6U C34A
[A] -1.85

[Q] Quick one: C11G A41U G47C U59A A66U
[A] -6.01

[Q] Quick one: G77U C88G U92A G113C G122A C123G
[A] -4.68

[Q] Quick one: A6U C97G
[A] -3.24

[Q] Quick one: G39A G61A
[A] -0.128

[Q] Quick one: A50U C72U A74G
[A] -1.22

[Q] Quick one: C20A U87G U92G
[A] -4.3

[Q] Quick one: C11G U21A A24U G60U C94G G120A
[A] -7.06

[Q] Quick one: C12U G42C C62A G120U U126C
[A] -1.07

[Q] Quick one: G17A G42U U106A
[A] -5.21

[Q] Quick one: A2C C124A
[A] 0.652

[Q] Quick one: G17U A46C C62U U112A C115A U132G U134A
[A] 0.56

[Q] Quick one: U106C A118U G120A
[A] 0.234

[Q] Quick one: C53A C85A G117A U125G
[A] -3.17

[Q] Quick one: C62G C72U
[A] -2.53

[Q] Quick one: G36A C62A C89U A95C C114U
[A] -6.66

[Q] Quick one: A43U G48U G61A
[A] -1.54

[Q] Quick one: U38G C64U A66C A90U A91C
[A] -5.32

[Q] Quick one: C12U C13U C40G C76A G77A U131C
[A] -0.917

[Q] Quick one: C49U G77A A90U A91G C102A
[A] -6.02

[Q] Quick one: G19A
[A] -2.28

[Q] Quick one: C22G U132A
[A] -3.21

[Q] Quick one: C8U
[A] 0.471

[Q] Quick one: C4U C49U C73G A121C
[A] 0.746

[Q] Quick one: U14G C73U A90G
[A] 1.59

[Q] Quick one: C73U C76G U112G
[A] -1.81

[Q] Quick one: C13G U59A A91U C115U
[A] -4.42

[Q] Quick one: U7G U59A U130G
[A] -0.396

[Q] Quick one: C15U G44C A83U A100C
[A] -3.3

The origin of these recorded values is the RNAGym collection of RNA variant scans (doi:10.1073/pnas.2313332121).
